What MIC was measured for each of the following?
// return numeric value only (unit: µg/mL, not printed)

// lookup MIC | system=Mycobact. smegmatis ATCC 607 | key= `CC[C@@]1(O)C[C@H](O[C@H]2C[C@H](NC)[C@H](O[C@H]3C[C@H](O)[C@H](O[C@H]4CCC(=O)[C@H](C)O4)[C@H](C)O3)[C@H](C)O2)c2c(cc3c(c2O)C(=O)c2c(O)cccc2C3=O)[C@H]1C(=O)OC`
3.1

// lookup MIC | system=Mycobact. smegmatis ATCC 607 | key= CC[C@@]1(O)C[C@H](O[C@H]2C[C@H](N(C)C)[C@H](O[C@H]3C[C@H](O)[C@H](OC4CCC(=O)C(C)O4)[C@H](C)O3)[C@H](C)O2)c2c(cc3c(c2O)C(=O)c2c(O)ccc(O)c2C3=O)[C@H]1C(=O)OC (stereo partly shown)
3.12

// lookup MIC | system=Mycobact. smegmatis ATCC 607 | key= CC[C@@]1(O)C[C@H](O[C@H]2C[C@H](N(C)C)[C@H](O[C@H]3C[C@H](O)[C@H](OC4CCC(=O)C(C)O4)[C@H](C)O3)[C@H](C)O2)c2c(cc3c(c2O)C(=O)c2c(O)cccc2C3=O)[C@H]1C(=O)OC (stereo partly shown)
3.12
